assaySystem: Vascular endothelial growth factor receptor 2 (Homo sapiens)
assayProcedure: Inhibition of KDR at 10 uM by HTRF assay relative to control
Recorded inhibition for the following compounds
Kindly write the number and append the unit.

Known results for compounds:
Cc1cccc(Nc2cc(Nc3cccc(C(=O)N(CC(C)O)CC(C)O)c3)ncn2)c1 (centres undefined) | 83%
O=C(NCCc1ccc(O)cc1)c1cccc(Nc2nccc(Nc3ccc4ncsc4c3)n2)c1 | 43%
Cc1cccc(Nc2ncnc3c2CN(C(=O)c2ccc(N(C)C)c4ccccc24)CC3)c1 | 6%
Nc1nc(Nc2ccc3ncsc3c2)cc(N2CCC[C@H]2C(=O)N[C@@H](CO)c2ccccc2)n1 | 10%
O=C(c1nc(SCc2ccc(Cl)cc2)n2ccccc12)N1CCN(c2cc(Nc3cccc(Br)c3)ncn2)CC1 | 0%
O=C(c1nc(SCc2ccc(Cl)cc2)n2ccccc12)N1CCN(c2ncnc3c2CN(Cc2ccccc2)CC3)CC1 | 10%

Asked: Would you please give the reported inhibition of `Cc1cccc(Nc2nccc3c2CN(C(=O)c2cc(C)n(C)c2C)CC3)c1` with Vascular endothelial growth factor receptor 2 (Homo sapiens)?
Given back: 0%

Asked: Would you please give the reported inhibition of `CN(C)c1ccc(C(=O)N2CCN(c3ncnc4c3CN(Cc3ccccc3)CC4)CC2)c2ccccc12` with Vascular endothelial growth factor receptor 2 (Homo sapiens)?
Given back: 3%

Asked: Would you please give the reported inhibition of `O=C(NCc1cccnc1)c1cccc(-c2ccc(Nc3ccc4ncsc4c3)nn2)c1` with Vascular endothelial growth factor receptor 2 (Homo sapiens)?
Given back: 62%

###

Recorded inhibition for the following compounds
assaySystem: Ribosomal protein S6 kinase beta-1 (Homo sapiens) (UniProt P23443)
Sequence (P23443 whole entry, looked up): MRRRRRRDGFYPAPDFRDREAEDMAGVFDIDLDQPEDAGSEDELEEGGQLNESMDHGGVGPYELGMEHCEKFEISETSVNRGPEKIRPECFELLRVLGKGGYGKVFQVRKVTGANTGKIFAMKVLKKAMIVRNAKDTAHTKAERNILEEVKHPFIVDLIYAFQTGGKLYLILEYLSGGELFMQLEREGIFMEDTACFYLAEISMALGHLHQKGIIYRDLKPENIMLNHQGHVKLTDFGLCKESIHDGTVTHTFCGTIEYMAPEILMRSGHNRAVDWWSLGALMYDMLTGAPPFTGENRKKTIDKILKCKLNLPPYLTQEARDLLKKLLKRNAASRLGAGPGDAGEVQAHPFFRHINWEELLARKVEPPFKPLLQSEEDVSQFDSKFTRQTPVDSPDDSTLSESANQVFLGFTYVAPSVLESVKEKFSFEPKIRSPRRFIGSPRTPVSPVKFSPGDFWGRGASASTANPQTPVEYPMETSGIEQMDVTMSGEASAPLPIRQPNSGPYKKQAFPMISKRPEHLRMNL
assayProcedure: Inhibition of p70S6K at 10 uM by HTRF assay relative to control
Report only the number, with the unit % understood.

COC[C@@H]1CCCN1C(=O)[C@@H]1CCCN1c1cc(Nc2cccc(OC)c2)nc(N)n1 | 9

Asked: Annotate the compound `COc1ccc(-c2noc(CN3CCN(c4cc(Nc5cccc(O)c5)ncn4)CC3)n2)cc1` with its measured inhibition.
Given back: 12

Asked: Annotate the compound `Cc1cccc(Nc2nccc(Nc3cccc(C(=O)N(C)CCc4ccccn4)c3)n2)c1` with its measured inhibition.
Given back: 9

###

assaySystem: Inhibitor of nuclear factor kappa-B kinase subunit beta (Homo sapiens) (UniProt O14920)
Sequence (O14920 whole entry): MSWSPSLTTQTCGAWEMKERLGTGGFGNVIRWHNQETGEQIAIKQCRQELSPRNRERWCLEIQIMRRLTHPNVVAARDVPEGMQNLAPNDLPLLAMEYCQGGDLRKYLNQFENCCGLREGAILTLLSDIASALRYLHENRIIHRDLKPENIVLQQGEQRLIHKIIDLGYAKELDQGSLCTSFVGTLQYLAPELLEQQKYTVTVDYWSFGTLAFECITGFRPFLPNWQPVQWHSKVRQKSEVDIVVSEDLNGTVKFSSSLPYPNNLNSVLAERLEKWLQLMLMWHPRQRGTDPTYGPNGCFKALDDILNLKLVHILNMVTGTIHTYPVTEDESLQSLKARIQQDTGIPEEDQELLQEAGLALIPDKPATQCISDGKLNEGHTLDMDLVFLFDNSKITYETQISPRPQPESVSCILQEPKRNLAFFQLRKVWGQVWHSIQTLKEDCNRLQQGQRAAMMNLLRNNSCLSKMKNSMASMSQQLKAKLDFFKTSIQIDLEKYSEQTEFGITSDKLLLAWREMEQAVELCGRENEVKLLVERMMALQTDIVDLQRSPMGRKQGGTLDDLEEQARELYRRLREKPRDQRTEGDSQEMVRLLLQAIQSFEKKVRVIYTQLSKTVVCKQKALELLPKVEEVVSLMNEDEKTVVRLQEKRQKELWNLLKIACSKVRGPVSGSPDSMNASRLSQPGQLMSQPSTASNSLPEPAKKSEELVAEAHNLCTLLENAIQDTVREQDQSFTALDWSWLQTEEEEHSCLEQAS
assayProcedure: Inhibition of IKK-beta at 10 uM by HTRF assay relative to control
Given measured inhibition, output Satisfied if it is greater than or equal to 4% and Not satisfied if not.

# example entries with known answers
CN(CCc1ccccn1)C(=O)[C@@H]1CCCN1c1nccc(Nc2ccccc2)n1 | Not satisfied
Cc1cccc(CN2CCN(c3cc(N(C)c4cccc(C)c4)ncn3)CC2)c1 | Not satisfied
Cc1cccc(N(C)c2cc(N3CCN(C(=O)Cc4c[nH]c5ccccc45)CC3)ncn2)c1 | Not satisfied
CN(CCCn1ccnc1)C(=O)[C@@H]1CCCN1c1nccc(Nc2ccccc2)n1 | Not satisfied
Cc1cccc(N(C)c2cc(Nc3cccc(C(=O)NCc4ccncc4)c3)ncn2)c1 | Not satisfied

From here, focus on the item given below.
Asked: Check this molecule for inhibition at or above 4%: `Cc1cccc(N(C)c2cc(N3CCN(CC(=O)Nc4nc(-c5ccccc5)cs4)CC3)ncn2)c1`
Given back: Satisfied

###

assaySystem: Tyrosine-protein kinase Fes/Fps (Homo sapiens) (UniProt P07332)
Sequence (P07332 whole entry): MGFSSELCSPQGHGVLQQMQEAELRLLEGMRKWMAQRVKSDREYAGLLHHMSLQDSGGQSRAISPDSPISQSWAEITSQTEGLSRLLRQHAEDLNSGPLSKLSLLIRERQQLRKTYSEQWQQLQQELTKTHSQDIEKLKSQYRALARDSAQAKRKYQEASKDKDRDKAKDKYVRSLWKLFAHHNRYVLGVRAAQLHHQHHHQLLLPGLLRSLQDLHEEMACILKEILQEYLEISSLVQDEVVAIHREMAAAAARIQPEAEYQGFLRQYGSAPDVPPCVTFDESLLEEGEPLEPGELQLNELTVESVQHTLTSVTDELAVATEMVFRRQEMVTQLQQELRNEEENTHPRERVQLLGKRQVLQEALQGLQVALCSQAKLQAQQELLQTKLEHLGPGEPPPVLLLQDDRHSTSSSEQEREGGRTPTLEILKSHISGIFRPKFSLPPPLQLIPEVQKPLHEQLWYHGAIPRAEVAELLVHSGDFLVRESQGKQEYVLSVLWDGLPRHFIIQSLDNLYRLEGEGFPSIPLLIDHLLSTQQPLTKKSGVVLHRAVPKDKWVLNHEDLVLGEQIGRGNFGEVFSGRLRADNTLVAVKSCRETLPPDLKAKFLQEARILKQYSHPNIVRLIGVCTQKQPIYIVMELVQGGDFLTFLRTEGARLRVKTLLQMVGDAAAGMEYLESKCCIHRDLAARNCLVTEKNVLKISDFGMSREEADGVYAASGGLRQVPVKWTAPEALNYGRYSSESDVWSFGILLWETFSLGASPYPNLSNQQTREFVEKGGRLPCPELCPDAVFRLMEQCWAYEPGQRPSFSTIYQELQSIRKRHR
assayProcedure: Inhibition of FES at 10 uM by HTRF assay relative to control
Recorded inhibition for the following molecules
Report only the number, with the unit % understood.

Known results for molecules:
O=C(NCCc1ccc(O)cc1)c1cccc(Nc2nccc(Nc3ccc4ncsc4c3)n2)c1 | 45
COC[C@@H]1CCCN1C(=O)[C@@H]1CCCN1c1cc(Nc2cccc(OC)c2)nc(N)n1 | 8

Asked: Annotate the molecule `COc1cccc(Nc2cc(N3CCC[C@H]3C(=O)NCCc3ccc(O)cc3)nc(N)n2)c1` with its measured inhibition.
Given back: 4

Asked: Annotate the molecule `Nc1nc(N2CCOCC2)cc(N2CCC(C(=O)NCc3cccs3)CC2)n1` with its measured inhibition.
Given back: 9

Asked: Annotate the molecule `Cc1cccc(CN2CCN(c3cc(N(C)c4cccc(C)c4)ncn3)CC2)c1` with its measured inhibition.
Given back: 4

###

assaySystem: MAP kinase-activated protein kinase 2 (Homo sapiens)
assayProcedure: Inhibition of MAPKAPK2 at 10 uM by HTRF assay relative to control
Recorded inhibition for the following compounds
Report only the number, with the unit % understood.

CN(C)CC(C)(C)CNC(=O)C1CCN(c2cc(N3CCOCC3)nc(N)n2)CC1 | 0
Clc1ccc2sc(CN3CCN(c4ncnc5c4CN(Cc4ccccc4)CC5)CC3)cc2c1 | 1
COc1cccc(Nc2cc(N3CCC[C@H]3C(=O)NCCN3CCCCC3)nc(N)n2)c1 | 0
COc1ccc(NC(=O)Cc2ccc(Nc3cc(N(C)c4cccc(C)c4)ncn3)cc2)cn1 | 0
O=C(COc1ccccc1)N1CCN(c2nccc(Nc3ccc4ncsc4c3)n2)CC1 | 0
O=C(C1CCN(c2nccc(Nc3ccccc3)n2)CC1)N1CC[C@@H](O)C1 | 4

Asked: Would you please give the reported inhibition of `Cc1cccc(Oc2ccnc(N3CCN(CC(=O)Nc4cccc5c4CCCC5)CC3)n2)c1` with MAP kinase-activated protein kinase 2 (Homo sapiens)?
Given back: 0

Asked: Would you please give the reported inhibition of `O=C(c1nc(SCc2ccc(Cl)cc2)n2ccccc12)N1CCN(c2cc(Nc3cccc(Br)c3)ncn2)CC1` with MAP kinase-activated protein kinase 2 (Homo sapiens)?
Given back: 2

Asked: Would you please give the reported inhibition of `O=C(NCCc1ccc(O)cc1)c1cccc(Nc2nccc(Nc3ccc4ncsc4c3)n2)c1` with MAP kinase-activated protein kinase 2 (Homo sapiens)?
Given back: 2

Asked: Would you please give the reported inhibition of `CC(=O)CCCCC(=O)N1CCN(c2nccc(Oc3cccc(C)c3)n2)CC1` with MAP kinase-activated protein kinase 2 (Homo sapiens)?
Given back: 1

Asked: Would you please give the reported inhibition of `Cc1cccc(CN2CCN(c3cc(N(C)c4cccc(C)c4)ncn3)CC2)c1` with MAP kinase-activated protein kinase 2 (Homo sapiens)?
Given back: 0

Asked: Would you please give the reported inhibition of `Nc1nc(Nc2ccccc2)cc(N2CCC(C(=O)NCCc3ccccn3)CC2)n1` with MAP kinase-activated protein kinase 2 (Homo sapiens)?
Given back: 0

Asked: Would you please give the reported inhibition of `Cc1cccc(N(C)c2cc(Nc3cccc(C(=O)NCCCn4ccnc4)c3)ncn2)c1` with MAP kinase-activated protein kinase 2 (Homo sapiens)?
Given back: 0

Asked: Would you please give the reported inhibition of Cc1cccc(Nc2cc(Nc3cccc(C(=O)N(CC(C)O)CC(C)O)c3)ncn2)c1 (stereo not given) with MAP kinase-activated protein kinase 2 (Homo sapiens)?
Given back: 0

###

assaySystem: Inhibitor of nuclear factor kappa-B kinase subunit beta (Homo sapiens)
assayProcedure: Inhibition of IKK-beta at 10 uM by HTRF assay relative to control
assayMetric: inhibition

Known results for compounds:
COC[C@@H]1CCCN1C(=O)C1CCCN1c1cc(Nc2cccc(Br)c2)ncn1 (some centres undefined) | 1%
Cc1cc(C(=O)N2CCN(c3ncnc4c3CN(Cc3ccccc3)CC4)CC2)c(C)n1C | 3%
O=C(NCc1ccncc1)c1cccc(Nc2cc(Nc3cccc(Br)c3)ncn2)c1 | 4%
O=C(CN1CCN(c2ncnc3c2CN(Cc2ccccc2)CC3)CC1)Nc1cc(F)ccc1F | 0%
Nc1nc(Nc2ccc3ncsc3c2)cc(N2CCC[C@H]2C(=O)NCCc2cccc(I)c2)n1 | 4%

Asked: Annotate the compound `COc1cccc(Nc2cc(Nc3cccc(C(=O)N(C)CCc4ccccn4)c3)nc(N)n2)c1` with its measured inhibition.
Given back: 6%

Asked: Annotate the compound `CN(C)CC(C)(C)CNC(=O)[C@@H]1CCCN1c1nccc(Nc2ccccc2)n1` with its measured inhibition.
Given back: 5%

Asked: Annotate the compound `CN(CCc1ccccn1)C(=O)c1cccc(Nc2nccc(Nc3ccc4ncsc4c3)n2)c1` with its measured inhibition.
Given back: 36%

###

assayProcedure: Inhibition of PKA at 10 uM by HTRF assay relative to control
Recorded inhibition for the following molecules
Report only the number, with the unit % understood.

Known results for molecules:
CN(CCc1ccccn1)C(=O)[C@@H]1CCCN1c1nccc(Nc2ccccc2)n1 | 0
Cc1cccc(N(C)c2cc(Nc3ccc(CC(=O)Nc4ccc5ncsc5c4)cc3)ncn2)c1 | 0

Asked: Annotate the molecule `Cc1cccc(Oc2ccnc(N3CCN(CC(=O)Nc4cccc5c4CCCC5)CC3)n2)c1` with its measured inhibition.
Given back: 5

Asked: Annotate the molecule `Cc1cccc(Oc2ccnc(N3CCC[C@H]3C(=O)NCc3cccnc3)n2)c1` with its measured inhibition.
Given back: 0

Asked: Annotate the molecule `Cc1cccc(N(C)c2cc(Nc3cccc(C(=O)NCCCn4ccnc4)c3)ncn2)c1` with its measured inhibition.
Given back: 0

###

assaySystem: Serine/threonine-protein kinase Chk2 (Homo sapiens)
assayProcedure: Inhibition of CHK2 at 10 uM by HTRF assay relative to control
Recorded inhibition for the following molecules
Report only the number, with the unit % understood.

O=C(NCCc1ccc(O)cc1)c1cccc(Nc2nccc(Nc3ccc4ncsc4c3)n2)c1 | 0
Nc1nc(N2CCOCC2)cc(N2CCC(C(=O)NCCc3ccc(O)cc3)CC2)n1 | 0
CN(CCCn1ccnc1)C(=O)[C@@H]1CCCN1c1nccc(Nc2ccccc2)n1 | 5

Asked: Annotate the molecule `O=C(COc1ccccc1)N1CCN(c2nccc(Nc3ccc4ncsc4c3)n2)CC1` with its measured inhibition.
Given back: 6

Asked: Annotate the molecule `COc1ccc(-c2noc(CN3CCN(c4cc(Nc5cccc(O)c5)ncn4)CC3)n2)cc1` with its measured inhibition.
Given back: 0

Asked: Annotate the molecule `Cc1cccc(N(C)c2cc(Nc3cccc(C(=O)NCCCn4ccnc4)c3)ncn2)c1` with its measured inhibition.
Given back: 0

Asked: Annotate the molecule `CN(C)c1ccc(C(=O)N2CCN(c3ncnc4c3CN(Cc3ccccc3)CC4)CC2)c2ccccc12` with its measured inhibition.
Given back: 6

Asked: Annotate the molecule COC[C@@H]1CCCN1C(=O)C1CCCN1c1cc(Nc2cccc(Br)c2)ncn1 (stereo not given in full) with its measured inhibition.
Given back: 3

Asked: Annotate the molecule `COc1cccc(Nc2cc(N3CCC[C@H]3C(=O)NCCN3CCCCC3)nc(N)n2)c1` with its measured inhibition.
Given back: 0

Asked: Annotate the molecule `Nc1nc(Nc2ccc(C(=O)NCCc3ccncc3)cc2)cc(N2CCOCC2)n1` with its measured inhibition.
Given back: 0

Data origin, for the record: ChEMBL document CHEMBL1150387
